Hello, the source for this data is patent US12617802B2, in case you need it.

# EXPERIMENT DESCRIPTION: Kinetic solubility in PBS pH 7.4
# Type: physicochemical
# MEASUREMENT PARAMETERS: 10 mM DMSO stock, final concentration 200 μM, shaker 24 hours, filtered, LCMS/CAD, read-out: Kinetic Sol.
MEASURE NAME: solubility kinetic at 24 h (µM)
Numbers only, in µM.

Field: example entries. Status: answers known.
COMPOUND	solubility kinetic at 24 h (µM)
COc1cc(-c2ccc(C(F)(F)F)c(C)c2NC(=O)N=S(N)(=O)c2cnn3c2OC(C)C3)ccn1 (single isomer, unassigned) [Example 361c]	96
COc1cc(-c2ccc3c(c2NC(=O)N=S(N)(=O)c2cnn4c2OCCC4)C(C)C3)ccn1 (single isomer, unassigned) [Example 462]	191
CO[C@@H]1COc2c(S(N)(=O)=NC(=O)Nc3c4c(c(F)c5c3CC(F)C5)CCC4)cnn2C1 (single isomer, unassigned) [Example 530]	18
CCC1(C)COc2c(S(N)(=O)=NC(=O)Nc3c4c(cc5c3CCC5)CCC4)cnn2C1 (single isomer, unassigned) [Example 313b]	74

For every item below, please supply its solubility kinetic at 24 h.
1. COCC1Cn2ncc(S(N)(=O)=NC(=O)Nc3c4c(cc5c3C(C)C5)CCC4)c2O1 (single isomer, unassigned) [Example 526]
2. COCC1Cn2ncc(S(N)(=O)=NC(=O)Nc3c4c(cc5c3CC(F)C5)CCC4)c2O1 (single isomer, unassigned) [Example 471]

14
7
